Listed below: IC50 values for each entry.
Test system: 996289-038-R-J1-PDC complex spheroid viability;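 also: spheroids exposed to the agents for 7 days before readout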
Assay: Anticancer human tumor 996289-038-R-J1-PDC patient-derived colon adenocarcinoma cell line growth inhibition [CLK]
Conditions: curve of first compound; second compound 1 µM

NC(=O)C(=Cn1cnc(-c2cc(C(F)(F)F)cc(C(F)(F)F)c2)n1)c1cncnc1 + CN1CCN(c2cc(C(=O)Nc3cc4cc(-c5cnn(C)c5)ccc4cn3)ccn2)CC1 :: < 9.49 nM
COc1ccc([C@@H](O)c2cc(-c3ncnc4cc(N5CCOCC5)ccc34)c(F)cc2Cl)nn1 + CN1CCN(c2cc(C(=O)Nc3cc4cc(-c5cnn(C)c5)ccc4cn3)ccn2)CC1 :: < 31.6 nM
COC1C=CCC(C)C(C)S(=O)(=O)NC(=O)c2ccc3c(c2)N(CC2CCC21)CC1(CCCc2cc(Cl)ccc21)CO3 (stereo not given) + CN1CCN(c2cc(C(=O)Nc3cc4cc(-c5cnn(C)c5)ccc4cn3)ccn2)CC1 :: < 31.6 nM
C#Cc1c(F)ccc2cc(O)cc(-c3ncc4c(N5CC6CCC(C5)N6)nc(OCC56CCCN5CC(F)C6)nc4c3F)c12 (stereo not given) + CNC(=O)c1ccc(Nc2nc(OC3CCCC3)c3c(-c4ccc5nc(C)oc5c4)c[nH]c3n2)c(OC)c1 :: < 31.6 nM
CC(=O)O[C@H]1C(=O)[C@@]2(C)[C@H]([C@H](OC(=O)c3ccccc3)[C@]3(O)C[C@H](OC(=O)[C@H](O)[C@@H](NC(=O)c4ccccc4)c4ccccc4)C(C)=C1C3(C)C)[C@]1(OC(C)=O)CO[C@@H]1C[C@@H]2O + CNC(=O)c1ccc(Nc2nc(OC3CCCC3)c3c(-c4ccc5nc(C)oc5c4)c[nH]c3n2)c(OC)c1 :: > 10000 nM
CC(Nc1ccc2c(c1)OCCn1cc(N3C(=O)OCC3C(F)F)nc1-2)C(N)=O (stereo not given) + CN1CCN(c2cc(C(=O)Nc3cc4cc(-c5cnn(C)c5)ccc4cn3)ccn2)CC1 :: < 31.6 nM
CC(CO)NC(=O)c1cc(-c2ccc(Cl)cc2)nn(-c2cnn(C)c2)c1=O (stereo not given) + CN1CCN(c2cc(C(=O)Nc3cc4cc(-c5cnn(C)c5)ccc4cn3)ccn2)CC1 :: < 31.6 nM
CC(=O)O[C@H]1C(=O)[C@@]2(C)[C@H]([C@H](OC(=O)c3ccccc3)[C@]3(O)C[C@H](OC(=O)[C@H](O)[C@@H](NC(=O)c4ccccc4)c4ccccc4)C(C)=C1C3(C)C)[C@]1(OC(C)=O)CO[C@@H]1C[C@@H]2O + CN1CCN(c2cc(C(=O)Nc3cc4cc(-c5cnn(C)c5)ccc4cn3)ccn2)CC1 :: < 31.6 nM

What the record says about CC1COCCN1c1cc(C2(S(C)(=N)=O)CC2)nc(-c2ccnc3[nH]ccc23)n1 (stereo not given) + CN1CCN(c2cc(C(=O)Nc3cc4cc(-c5cnn(C)c5)ccc4cn3)ccn2)CC1 : IC50 is < 31.6 nM

What the record says about C=CC(=O)N1CCN(c2nc(=O)n(-c3c(C)ccnc3C(C)C)c3nc(-c4c(O)cccc4F)c(F)cc23)C(C)C1 (stereo not given) + CNC(=O)c1ccc(Nc2nc(OC3CCCC3)c3c(-c4ccc5nc(C)oc5c4)c[nH]c3n2)c(OC)c1 : IC50 is > 10000 nM
